# assay explanation: self-splicing fitness, log relative to wild type (ln ratio); higher = more splicing; Tetrahymena group I intron in knt gene, E. coli kanamycin selection, DiMSum; sequences stand for … in CUCUCU…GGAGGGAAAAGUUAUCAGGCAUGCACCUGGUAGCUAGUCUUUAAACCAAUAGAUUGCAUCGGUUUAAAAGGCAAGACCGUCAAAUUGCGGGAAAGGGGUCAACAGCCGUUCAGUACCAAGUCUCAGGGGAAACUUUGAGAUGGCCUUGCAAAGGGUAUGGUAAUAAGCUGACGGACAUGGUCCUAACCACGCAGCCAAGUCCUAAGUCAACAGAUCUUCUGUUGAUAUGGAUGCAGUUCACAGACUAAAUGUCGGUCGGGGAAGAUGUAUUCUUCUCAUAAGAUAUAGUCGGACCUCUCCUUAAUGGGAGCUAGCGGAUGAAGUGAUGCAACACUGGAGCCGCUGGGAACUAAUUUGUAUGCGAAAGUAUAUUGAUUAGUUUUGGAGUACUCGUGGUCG;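 also: selection with 25 µg/mL kanamycin versus none on LB agar overnight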
# condition: 37 °C
measured property: self-splicing fitness (ln)
Enter the number alone.

Please review the following examples before continuing.
1) UAGGAGCAAUAUUACGUCGU
-1.86
2) UGCUAGCAAUAUUACGGUAC
-0.887
3) GUCAAGCAAUAUUACGCGAG
-1.36

Prompt: Which value of self-splicing fitness (ln) has been reported for `ACGCAGCAAUAUUACGGCCG` in the records?
Completion: -0.0837

Prompt: Entry under review: `CAUAAGCAAUAUUACGUGGA` . Reported self-splicing fitness (ln)?
Completion: -2.53

Prompt: Entry `UUUUAGCAAUAUUACGACCG` has what self-splicing fitness (ln)?
Completion: -1.19

Prompt: Please report the recorded self-splicing fitness (ln) for `ACGCAGCAAUAUUACGAUAG` .
Completion: -2.65

Prompt: Return reported self-splicing fitness (ln); argument: `CGGCAGCAAUAUUACGUAAU`
Completion: -1.69

Prompt: Would you mind telling me what self-splicing fitness (ln) value was observed for `CGCAAGCAAUAUUACGGCGA` ?
Completion: -0.653

Prompt: Any idea what self-splicing fitness (ln) was measured for `GUCAAGCAAUAUUACGCUCU` ?
Completion: -1.18

* * *

# assay explanation: self-splicing fitness, log relative to wild type (ln ratio); higher = more splicing; Tetrahymena group I intron in knt gene, E. coli kanamycin selection, DiMSum; sequences stand for … in CUCUCU…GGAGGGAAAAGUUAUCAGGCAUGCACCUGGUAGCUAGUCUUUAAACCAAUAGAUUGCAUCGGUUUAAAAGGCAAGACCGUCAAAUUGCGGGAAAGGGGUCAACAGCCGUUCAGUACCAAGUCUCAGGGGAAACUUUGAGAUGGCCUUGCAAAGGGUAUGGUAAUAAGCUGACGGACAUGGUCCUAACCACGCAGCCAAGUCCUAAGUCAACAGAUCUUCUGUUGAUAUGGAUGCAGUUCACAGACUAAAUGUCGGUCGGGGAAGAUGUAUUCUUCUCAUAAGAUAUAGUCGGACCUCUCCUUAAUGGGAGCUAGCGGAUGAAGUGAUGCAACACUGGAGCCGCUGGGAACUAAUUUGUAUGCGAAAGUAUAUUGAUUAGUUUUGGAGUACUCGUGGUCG
# condition: 37 °C
Recorded self-splicing fitness (ln) values for a group of sequences are listed next.

1. GCGCAGCAAUAUUACGGCGG
-1.28
2. GAUUAGCAAUAUUACGACCA
-0.295
3. UUAUAGCAAUAUUACGCUUG
-0.162
4. ACUAAGCAAUAUUACGUACC
-0.715
5. CACUAGCAAUAUUACGUGUG
-2.82
6. GCUUAGCAAUAUUACGGCCA
-0.846

Now, please, on to the next sequence.
Prompt: Can you share its self-splicing fitness (ln)? I mean this sequence: `UCUUAGCAAUAUUACGAUGA`
Completion: 0.223
